Task for the reader: assign each of the following compounds its reported residual activity.
Target: BRSK1 (human) (UniProt Q8TDC3)
Sequence (Q8TDC3 whole entry, looked up): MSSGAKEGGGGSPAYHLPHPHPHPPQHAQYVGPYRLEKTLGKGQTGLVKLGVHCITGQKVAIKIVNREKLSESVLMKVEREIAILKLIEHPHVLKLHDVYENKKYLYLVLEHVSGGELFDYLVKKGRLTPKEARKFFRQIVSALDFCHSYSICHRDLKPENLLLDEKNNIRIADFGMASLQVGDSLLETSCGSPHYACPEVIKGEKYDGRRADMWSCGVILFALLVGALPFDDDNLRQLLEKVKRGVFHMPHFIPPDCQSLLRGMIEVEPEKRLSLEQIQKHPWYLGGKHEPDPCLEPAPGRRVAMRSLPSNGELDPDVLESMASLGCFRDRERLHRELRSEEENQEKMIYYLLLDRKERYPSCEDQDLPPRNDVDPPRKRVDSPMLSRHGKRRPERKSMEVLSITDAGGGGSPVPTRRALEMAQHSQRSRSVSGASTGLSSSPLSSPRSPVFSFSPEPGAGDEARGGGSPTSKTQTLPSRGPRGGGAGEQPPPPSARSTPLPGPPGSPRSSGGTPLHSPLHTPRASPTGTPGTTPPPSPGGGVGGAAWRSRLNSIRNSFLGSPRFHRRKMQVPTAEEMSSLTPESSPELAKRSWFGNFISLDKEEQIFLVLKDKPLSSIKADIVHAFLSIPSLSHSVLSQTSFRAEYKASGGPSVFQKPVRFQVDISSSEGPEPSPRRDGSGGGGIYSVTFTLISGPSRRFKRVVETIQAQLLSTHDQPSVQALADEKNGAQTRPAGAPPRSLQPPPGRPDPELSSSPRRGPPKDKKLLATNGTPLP
Test: radiometric filter-binding kinase assay, Kinase HotSpot
Conditions: compound 0.5 µM; ATP 10 µM
Write it as a number; the unit % goes unstated.

Summary for this compound, Oc1ccc(-c2nc(-c3ccc(F)cc3)c(-c3ccncc3)[nH]2)cc1 : residual activity is 101

Summary for this compound, CS(=O)c1ccc(-c2nc(-c3ccc(F)cc3)c(-c3ccncc3)[nH]2)cc1 (stereo not given) : residual activity is 97.9

Summary for this compound, CC(C)(C)c1nc2c3ccc(F)cc3c3c(=O)[nH]ccc3c2[nH]1 : residual activity is 15.4

Summary for this compound, Cc1ccc(NC(=O)c2ccc(CN3CCN(C)CC3)cc2)cc1Nc1nc(-c2cccnc2)cs1 : residual activity is 102

Summary for this compound, COc1cc2ncnc(Nc3ccc(F)c(Cl)c3)c2cc1OCCCN1CCOCC1 : residual activity is 92.5

Summary for this compound, O=c1cc(N2CCNCC2)oc2c(-c3ccccc3)cccc12 : residual activity is 95.3

Summary for this compound, CCCNC(=O)Nc1ccc(Oc2ncnc3cc(OC)c(OC)cc23)cc1Cl : residual activity is 98.5

Summary for this compound, O=c1cc(-c2cccc3c2Sc2ccccc2S3)oc(N2CCOCC2)c1 : residual activity is 98.2

Summary for this compound, O=C(NC(NC(=S)Nc1ccc(F)c([N+](=O)[O-])c1)C(Cl)(Cl)Cl)C(c1ccccc1)c1ccccc1 (stereo not given) : residual activity is 98.3

Summary for this compound, CC(C)[C@H](CO)Nc1nc(Nc2cccc(Cl)c2)c2ncn(C(C)C)c2n1 : residual activity is 100

====

Biological target: RPS6KA6 KD1 KD2 (human) (UniProt Q9UK32)
Sequence (Q9UK32 whole entry, looked up): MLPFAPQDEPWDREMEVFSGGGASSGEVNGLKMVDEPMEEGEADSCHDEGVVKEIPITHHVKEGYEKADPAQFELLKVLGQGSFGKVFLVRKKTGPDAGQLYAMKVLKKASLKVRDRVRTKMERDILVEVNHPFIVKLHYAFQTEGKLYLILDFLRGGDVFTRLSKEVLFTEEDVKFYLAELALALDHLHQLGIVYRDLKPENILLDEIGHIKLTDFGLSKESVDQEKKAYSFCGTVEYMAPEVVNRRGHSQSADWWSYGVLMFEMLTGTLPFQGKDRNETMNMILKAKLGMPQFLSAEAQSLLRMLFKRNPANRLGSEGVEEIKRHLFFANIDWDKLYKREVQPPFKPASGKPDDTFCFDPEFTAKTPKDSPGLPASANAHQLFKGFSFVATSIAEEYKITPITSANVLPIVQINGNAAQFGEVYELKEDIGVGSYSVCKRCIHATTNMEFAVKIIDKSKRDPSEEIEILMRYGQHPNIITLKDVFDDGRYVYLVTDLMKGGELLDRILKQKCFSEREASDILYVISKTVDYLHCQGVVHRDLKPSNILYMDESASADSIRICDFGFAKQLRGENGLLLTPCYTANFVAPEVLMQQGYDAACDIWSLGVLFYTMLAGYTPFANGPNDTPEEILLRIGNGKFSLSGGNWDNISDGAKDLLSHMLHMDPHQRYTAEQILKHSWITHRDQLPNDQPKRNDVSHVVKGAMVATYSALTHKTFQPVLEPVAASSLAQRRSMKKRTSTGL
Experiment: radiometric filter-binding kinase assay, Kinase HotSpot
Details: compound 0.5 µM; ATP 10 µM
quantity_name: residual activity (%)
Write it as a number; the unit % goes unstated.

Summary for this compound, CS(=O)c1ccc(-c2nc(-c3ccc(F)cc3)c(-c3ccncc3)[nH]2)cc1 (stereo unspecified) : residual activity is 110

Summary for this compound, COc1ccc(-c2cnc3c(-c4ccsc4)cnn3c2)cc1 : residual activity is 90.7

Summary for this compound, Nc1n[nH]c2nnc(-c3c(-c4ccccc4)nn4ccccc34)cc12 : residual activity is 95.5

Summary for this compound, O=C1Nc2ccccc2/C1=C\c1c(Cl)[nH]c2ccccc12 : residual activity is 91.2

Summary for this compound, C#Cc1cccc(Nc2ncnc3cc(OCCOC)c(OCCOC)cc23)c1 : residual activity is 99.1

Summary for this compound, CCCNC(=O)Nc1ccc(Oc2ncnc3cc(OC)c(OC)cc23)cc1Cl : residual activity is 102

Summary for this compound, O=c1cc(N2CCNCC2)oc2c(-c3ccccc3)cccc12 : residual activity is 99

Summary for this compound, CSc1nc(-c2ccc(F)cc2)c(-c2ccnc(NC(C)c3ccccc3)c2)[nH]1 (stereo unspecified) : residual activity is 93.1

Summary for this compound, CCN1/C(=C/C(C)=O)Sc2ccc(OC)cc21 : residual activity is 89

Summary for this compound, Nc1nc(Nc2ccc(S(N)(=O)=O)cc2)nn1C(=S)Nc1c(F)cccc1F : residual activity is 2.42

Summary for this compound, Oc1ccc(-c2nc(-c3ccc(F)cc3)c(-c3ccncc3)[nH]2)cc1 : residual activity is 110

Value source: the kinase profiling compilation of Christmann-Franck et al. (2016)
